Cited source: ChEMBL document CHEMBL5523741

- assay summary: Half life in CD-1 mouse at 3 mg/kg, iv measured up to 24 hrs
- Assay type: ADME, organism-based
- condition summary: in vivo
quantity kind: half-life (h)
# unit: h | format: bare number

stdin: Query: half-life; subject: Cc1nc(Nc2ncc(C(=O)Nc3c(C)cccc3Cl)s2)cc(N2CCC(CN3CCN(c4ccc(C5CCC(=O)NC5=O)cc4)CC3)CC2)n1 (stereo unspecified)
stdout: 3.51

###

- assay summary: Cmax in CD-1 mouse at 3 mg/kg, iv measured up to 24 hrs
- Assay type: ADME, organism-based
- condition summary: in vivo
quantity kind: Cmax (ng/mL)
Value expressed in ng/mL; do not type the unit.

stdin: Using the record for Cc1nc(Nc2ncc(C(=O)Nc3c(C)cccc3Cl)s2)cc(N2CCC(CN3CCN(c4ccc(C5CCC(=O)NC5=O)cc4)CC3)CC2)n1 (stereo unspecified) , report its Cmax.
stdout: 1450

###

- assay summary: Drug concentration in CD-1 mouse plasma at 30 mg/kg, po measured after 4 hrs by UPLC-MS/MS analysis
- Type: ADME, organism-based
quantity kind: concentration at 4 h (ng/mL)
Provide only the numeric value, understood in ng/mL.

stdin: Would you kindly share the measured concentration at 4 h for Cc1nc(Nc2ncc(C(=O)Nc3c(C)cccc3Cl)s2)cc(N2CCN(CCCN3CCC4(CC3)CCN(c3ccc(C5CCC(=O)NC5=O)cc3)CC4)CC2)n1 (stereo not given) ?
stdout: 18

stdin: Report concentration at 4 h for Cc1nc(Nc2ncc(C(=O)Nc3c(C)cccc3Cl)s2)cc(N2CCC(CN3CCN(c4ccc(C5CCC(=O)NC5=O)cc4)CC3)CC2)n1 (stereo not given) please.
stdout: 3290

stdin: I am curious: what concentration at 4 h value has been reported for Cc1nc(Nc2ncc(C(=O)Nc3c(C)cccc3Cl)s2)cc(N2CCN(C(=O)CCCN3CC4CC3CN4c3ccc(C4CCC(=O)NC4=O)cc3)CC2)n1 (stereo not given) ?
stdout: 1.19

stdin: Fill in: concentration at 4 h of Cc1nc(Nc2ncc(C(=O)Nc3c(C)cccc3Cl)s2)cc(N2CCC(N(C)C3CCN(c4ccc(C5CCC(=O)NC5=O)cc4)CC3)CC2)n1 (stereo not given) is ___
stdout: 207

stdin: Sample Cc1nc(Nc2ncc(C(=O)Nc3c(C)cccc3Cl)s2)cc(N2CCN(CCCN3CCC(c4ccc(C5CCC(=O)NC5=O)cc4)CC3)CC2)n1 (stereo not given) — what was its concentration at 4 h?
stdout: 54

###

- assay summary: Apparent permeability of compound across apical to basolateral side in human Caco-2 cells
- Format: ADME, cell-based
Papp A→B by entry:
Give the value in ×10⁻⁶ cm/s but do not write ×10⁻⁶ cm/s after it.

A selection of reference data follows.
In [3]: df
Out[3]:
                                   compound  quantity_kind  measured_value
0  Cc1nc(Nc2ncc(C(=O)Nc3c(C)cccc3Cl)s2)cc(N2CCN(CCCN3CCN(Cc4ccc(C5CCC(=O)NC5=O)cc4)CC3)CC2)n1 (stereo unspecified)       Papp A→B            1.15
1  Cc1nc(Nc2ncc(C(=O)Nc3c(C)cccc3Cl)s2)cc(N2CCN(CCCN3CCC(c4ccc(C5CCC(=O)NC5=O)cc4)CC3)CC2)n1 (stereo unspecified)       Papp A→B            1.04
2  Cc1nc(Nc2ncc(C(=O)Nc3c(C)cccc3Cl)s2)cc(N2CCC(CN3CCN(c4ccc(C5CCC(=O)NC5=O)cc4)CC3)CC2)n1 (stereo unspecified)       Papp A→B           0.302
3  Cc1nc(Nc2ncc(C(=O)Nc3c(C)cccc3Cl)s2)cc(N2CCC(N(C)C3CCN(c4ccc(C5CCC(=O)NC5=O)cc4)CC3)CC2)n1 (stereo unspecified)       Papp A→B            1.93
4  Cc1nc(Nc2ncc(C(=O)Nc3c(C)cccc3Cl)s2)cc(N2CCN(CCCN3CCC4(CC3)CCN(c3ccc(C5CCC(=O)NC5=O)cc3)CC4)CC2)n1 (stereo unspecified)       Papp A→B           0.231

Now examine the next entry.
stdin: Please give the measured Papp A→B for this compound: Cc1nc(Nc2ncc(C(=O)Nc3c(C)cccc3Cl)s2)cc(N2CCN(C(=O)CCCN3CC4CC3CN4c3ccc(C4CCC(=O)NC4=O)cc3)CC2)n1 (stereo unspecified)
stdout: 1.32
